# Read-out: Actin alpha 1 (ACTA1), ACTA1 (gene 58)
# test-summary: BSK_MyoF_ACTA1: BioMAP Diversity Plus: MyoF Assay for Actin alpha 1 (ACTA1) Biomarker Activity (AID 2284244)
# assay-context: primary human lung fibroblasts
Activity calls are given as the source filed them. The calls were made as follows: active = hit-call score of the fitted dose curve at least 0.9, where 1 is the maximum; inactive = score below 0.9.
One label from this list, please: active, inactive

Answered examples (2):
>  <smiles-structure>
CCOP(=S)(OCC)SCSc1ccc(Cl)cc1

>  <assigned-category>
active

$$$$
>  <smiles-structure>
Cc1c([N+](=O)[O-])cc2c(c1[N+](=O)[O-])C(C)(C)CC2(C)C

>  <assigned-category>
inactive

$$$$

I'd appreciate the recorded outcome for c1ccc2c(c1)sc1ccccc12 from this test.
inactive
